target_or_system: Histone-lysine N-methyltransferase EZH2 [Y641F] (Homo sapiens, UniProt Q15910, Y641F)
Sequence (Q15910 whole entry Y641F): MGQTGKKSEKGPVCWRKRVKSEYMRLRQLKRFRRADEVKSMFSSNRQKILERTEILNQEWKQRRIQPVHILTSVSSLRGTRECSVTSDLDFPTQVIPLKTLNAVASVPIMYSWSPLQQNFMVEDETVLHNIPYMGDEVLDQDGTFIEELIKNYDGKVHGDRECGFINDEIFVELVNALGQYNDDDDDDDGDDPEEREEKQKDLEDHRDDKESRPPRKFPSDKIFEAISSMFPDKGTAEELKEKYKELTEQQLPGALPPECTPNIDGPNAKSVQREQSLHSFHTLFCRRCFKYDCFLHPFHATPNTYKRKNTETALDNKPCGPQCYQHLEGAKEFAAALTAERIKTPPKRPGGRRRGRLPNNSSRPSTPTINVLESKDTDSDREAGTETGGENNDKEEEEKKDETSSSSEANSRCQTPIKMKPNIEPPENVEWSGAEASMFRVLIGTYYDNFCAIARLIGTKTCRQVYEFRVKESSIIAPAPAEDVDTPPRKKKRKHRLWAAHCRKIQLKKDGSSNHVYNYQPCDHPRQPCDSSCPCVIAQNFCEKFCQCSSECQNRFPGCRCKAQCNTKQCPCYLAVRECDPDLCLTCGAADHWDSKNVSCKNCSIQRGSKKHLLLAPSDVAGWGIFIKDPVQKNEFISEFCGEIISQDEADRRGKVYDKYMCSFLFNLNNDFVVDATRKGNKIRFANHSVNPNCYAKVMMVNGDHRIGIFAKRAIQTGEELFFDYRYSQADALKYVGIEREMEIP
protocol_description: Wild-Type PRC2 Enzyme Assay
readout_name: IC50 (µM)

> print(dat)
                                   molecule  recorded.value
1  CCN(c1cc(Cl)cc(C(=O)NCc2c(C)cc3cc[nH]n3c2=O)c1C)[C@H]1CC[C@H](N(C)C)CC1 [US10150764, Compound 2]            8.35

----------
target_or_system: Histone-lysine N-methyltransferase EZH2 (Homo sapiens, UniProt Q15910)
Sequence (Q15910 whole entry): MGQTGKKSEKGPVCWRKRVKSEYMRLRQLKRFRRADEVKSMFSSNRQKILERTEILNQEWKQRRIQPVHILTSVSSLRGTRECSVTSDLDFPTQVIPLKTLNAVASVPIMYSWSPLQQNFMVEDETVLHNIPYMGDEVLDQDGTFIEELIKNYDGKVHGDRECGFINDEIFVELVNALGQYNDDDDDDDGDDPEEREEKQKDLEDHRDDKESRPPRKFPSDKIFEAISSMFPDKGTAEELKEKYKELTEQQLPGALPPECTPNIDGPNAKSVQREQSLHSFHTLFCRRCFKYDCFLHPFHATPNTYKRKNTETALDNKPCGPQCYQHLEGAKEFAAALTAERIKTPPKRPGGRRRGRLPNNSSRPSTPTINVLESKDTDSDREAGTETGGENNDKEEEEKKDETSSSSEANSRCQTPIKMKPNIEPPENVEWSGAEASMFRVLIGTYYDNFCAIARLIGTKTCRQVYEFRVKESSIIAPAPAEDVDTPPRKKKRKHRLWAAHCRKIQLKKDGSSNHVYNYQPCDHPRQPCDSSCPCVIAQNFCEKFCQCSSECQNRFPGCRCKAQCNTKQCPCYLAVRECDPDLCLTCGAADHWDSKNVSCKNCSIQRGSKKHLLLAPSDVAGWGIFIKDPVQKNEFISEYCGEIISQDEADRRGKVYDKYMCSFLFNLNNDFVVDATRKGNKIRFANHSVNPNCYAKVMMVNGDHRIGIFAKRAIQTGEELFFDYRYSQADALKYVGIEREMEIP
pIC50: −log10 of the molar value.
readout_name: pIC50

> print(dat)
                               smiles.input  recorded.value
1  CCN(c1cc(Cl)cc(C(=O)NCc2c(C)cc3cc[nH]n3c2=O)c1C)[C@H]1CC[C@H](N(C)C)CC1            4.82
